# TARGET OF ASSAY: Human immunodeficiency virus type 1 integrase (Human immunodeficiency virus 1)
# TEST PROTOCOL: Binding affinity to HIV-1 integrase measured after overnight incubation by chemiluminescence analysis relative to IN 118-128
# Set-up: concentration or dose not given beside the values
Square brackets hold non-standard residues; d marks the D form. Peptide text beside a SMILES is read from it. NMeV = CN[C@H](C(=O)O)C(C)C; NMeA = CN[C@@H](C)C(=O)O
METRIC NAME: Activity (%)
The answer is to be given in %; state only the numeric part.

What measured Activity goes with CC(C)[C@H](NC(=O)[C@@H](NC(=O)[C@@H](NC(=O)[C@H](CO)NC(=O)[C@H](NC(=O)[C@H](Cc1ccccc1)NC(=O)[C@H](CC(N)=O)NC(=O)[C@H](CO)NC(=O)CN)[C@@H](C)O)[C@@H](C)O)[C@@H](C)O)C(=O)N[C@@H](CCCCN)C(=O)N[C@@H](C)C(=O)O ?
58

Follow-up entry: CC(C)[C@H](NC(=O)[C@@H](NC(=O)[C@@H](NC(=O)[C@H](CO)NC(=O)[C@H](C)NC(=O)[C@H](Cc1ccccc1)NC(=O)[C@H](CC(N)=O)NC(=O)[C@H](CO)NC(=O)CN)[C@@H](C)O)[C@@H](C)O)C(=O)N[C@@H](CCCCN)C(=O)N[C@@H](C)C(=O)O (H-GSNFASTTVKA-OH)
228

Follow-up entry: C[C@@H](O)[C@H](NC(=O)[C@H](Cc1ccccc1)NC(=O)[C@H](CC(N)=O)NC(=O)[C@H](CO)NC(=O)CN)C(=O)N[C@@H](CO)C(=O)O (H-GSNFTS-OH)
0

Follow-up entry: CC(C)[C@H](NC(=O)[C@@H](NC(=O)[C@@H](NC(=O)[C@H](CO)NC(=O)[C@@H](NC(=O)[C@H](Cc1ccccc1)NC(=O)[C@H](CC(N)=O)NC(=O)[C@H](CO)NC(=O)CN)[C@@H](C)O)[C@@H](C)O)[C@@H](C)O)C(=O)N[C@@H](CCCCN)C(=O)N(C)[C@@H](C)C(=O)O (H-GSNFTSTTVK[NMeA]-OH)
136

Follow-up entry: C[C@@H](O)[C@H](NC(=O)[C@@H](NC(=O)[C@H](CO)NC(=O)[C@@H](NC(=O)[C@H](Cc1ccccc1)NC(=O)[C@H](CC(N)=O)NC(=O)[C@H](CO)NC(=O)CN)[C@@H](C)O)[C@@H](C)O)C(=O)O (H-GSNFTSTT-OH)
19

Follow-up entry: CC(C)[C@@H](C(=O)N[C@@H](CCCCN)C(=O)N[C@@H](C)C(=O)O)N(C)C(=O)[C@@H](NC(=O)[C@@H](NC(=O)[C@H](CO)NC(=O)[C@@H](NC(=O)[C@H](Cc1ccccc1)NC(=O)[C@H](CC(N)=O)NC(=O)[C@H](CO)NC(=O)CN)[C@@H](C)O)[C@@H](C)O)[C@@H](C)O (H-GSNFTSTT[NMeV]KA-OH)
273

Follow-up entry: CC(C)[C@H](NC(=O)[C@@H](NC(=O)[C@@H](NC(=O)[C@H](CO)NC(=O)[C@@H](NC(=O)[C@H](Cc1ccccc1)NC(=O)[C@H](CC(N)=O)NC(=O)[C@H](CO)NC(=O)CN)[C@@H](C)O)[C@@H](C)O)[C@@H](C)O)C(=O)O (H-GSNFTSTTV-OH)
27

Follow-up entry: CC(C)[C@H](NC(=O)[C@@H](NC(=O)[C@H](C)NC(=O)[C@H](CO)NC(=O)[C@@H](NC(=O)[C@H](Cc1ccccc1)NC(=O)[C@H](CC(N)=O)NC(=O)[C@H](CO)NC(=O)CN)[C@@H](C)O)[C@@H](C)O)C(=O)N[C@@H](CCCCN)C(=O)N[C@@H](C)C(=O)O (H-GSNFTSATVKA-OH)
231
